Tested on: HL-60(TB) leukemia
Assay: NCI-60 one-dose screen, 48 h (100 = growth as untreated, 0 = no growth, -100 = all killed)
Details: 10 µM unless noted
The panel holds about 83,000 compounds, 20% with a hit somewhere; the sample as a whole holds those more often.
Where growth equals or exceeds 50%, the correct label is T; where it does not, the label is F.

• CCNC(=O)Oc1ccc(/C(=C(/C)c2ccc(Cl)cc2)c2ccc(OCCN3CCCC3)cc2)cc1 = T
• Cc1ccc(C2CC(c3ccc(Nc4nc(NCCO)nc(Nc5ccc(Cl)cc5)n4)cc3)=Nc3c(N)nc(N)nc3N2)cc1 (stereo not given) = F
• Cn1cc(-c2nn3cc(-c4ccncc4)nc3s2)c2cc(Cl)ccc21 = F
• Cc1cc(-c2ccc3nc(N)sc3c2)nc2ccc3[nH]ncc3c12 = F
• Clc1ccc(Cc2nnc3sc(-c4cccnc4)nn23)cc1 = T
• COc1ccc(-c2cc(-c3ccc(Cl)cc3)c(C#N)c(=O)n2Cc2ccc(C(=O)O)cc2)cc1 = T
• Clc1ccc2oc3c(OCCCn4ccnc4)c4ccccc4nc3c2c1 = T
• CCN(CC)S(=O)(=O)c1ccc(-c2nc(C(Cl)Cl)nc3cc(C)nn23)cc1 = F
• O=C(CN1CCN(c2cc(=O)n(-c3ccccc3)c3ccccc23)CC1)Nc1cccc(C(F)(F)F)c1 = F
• Nc1cc(-c2c[nH]c3ccc(Cl)cc23)nc2cc(-c3c[nH]c4ccc(Cl)cc34)nn12 = F
• COc1ccc(-c2cc(-c3ccc(Cl)cc3)nc3nc(N)nn23)cc1 = T
• CC1CCN(S(=O)(=O)c2ncsc2-c2ccccc2)CC1 = T
• O=C(O)CNS(=O)(=O)c1ccc(Oc2ccc(S(=O)(=O)NCC(=O)O)cc2)cc1 = T
• Cc1ccc(/C(N)=N/C(N)=N/c2nc3ccccc3s2)cc1 = T
• Cc1ccc(-c2cc3nc(C(Cl)Cl)nc(-c4ccco4)n3n2)cc1 = F
• C#Cc1nc(/C=C/C(=O)NO)cs1 = F
• O=C(COc1ccc(/C=C2\C(=O)Nc3cc(Cl)ccc32)cc1)Nc1ccc(Cl)cc1 = T
• Oc1c(Cl)cc(Cl)c2ccc(CN3CCCCC3)nc12 = F
• Cc1cc2nc3c4cc(Cl)ccc4n(CC(=O)NCCN(C)C)c3nc2cc1C = T
• O=C(CSc1nc2ccccc2c(=O)n1CCc1ccccc1)Nc1ccc(S(=O)(=O)Nc2ccc(Cl)nn2)cc1 = T
• C/C(=N\NC(=O)Nc1ccccc1)c1nnn(-c2ccc([N+](=O)[O-])cc2)c1C = T
• NC(N)=Nc1ccc(Oc2cccc(NC(N)=Nc3ccc(Br)c(C(F)(F)F)c3)c2)cc1 = F
• COC(=O)c1ccc(NC(=S)N2CCc3ccc([N+](=O)[O-])cc3C2)cc1O = T
• NCCNC(=O)c1cccc(COc2ccccc2NC(=O)c2cc(Cl)c(Cl)[nH]2)c1 = T
• N#C/C(=C\c1ccc(Cl)cc1Cl)C(N)=O = T
• COc1cc2oc(-c3cccc(NC(=O)c4cc(N)ccc4Cl)c3)cc(=O)c2c(OC)c1OC = T
• O=S(=O)(NCCCNc1nccc(-c2[nH]c(-c3ccccc3)nc2-c2ccc(Cl)c(O)c2)n1)c1ccc(Br)cc1 = F
• CCOC(=O)c1c(NCC(=O)Nc2ccc(Br)cc2)sc2c1CCCC2 = F
• COc1ccc(CNS(=O)(=O)/N=C2\NC(=O)NC2=C(Cl)Cl)cc1 = F
• Cc1ccc2ccc3ccc(C)nc3c2n1.Cc1ccc2ccc3ccc(C)nc3c2n1.Oc1c(Cl)cc(Cl)c2ccc(CN3CCCCC3)nc12.[Ru] = F
• O=C(CCCCCCN1CC(=O)N2[C@@H](c3cc(F)cc(F)c3)c3[nH]c4ccccc4c3C[C@H]2C1=O)NO = F
• CC(O)c1cc2ccccc2c(=O)o1 (stereo not given) = T
• Nc1nc(-c2cccc([N+](=O)[O-])c2)c(N=Nc2cccc([N+](=O)[O-])c2)s1 = T
• O=C(CNc1nc(-c2cccc([N+](=O)[O-])c2)cs1)Nc1cccc([N+](=O)[O-])c1 = F
• O=C(NNc1nc2cc(F)ccc2n2cccc12)c1ccncn1 = F
• CCNC(=O)N1CCc2cc(OC)c(OCCc3ccc(OC)nc3)cc2C1c1ccc(C)cc1C (stereo not given) = F
• CC(C)C(/C=C/c1[nH]ncc1-c1cc(Cl)ccc1O)N1CCOCC1 (stereo not given) = T
• CC1=C(C)C(=O)C(Nc2cccc(C(F)(F)F)c2)=C(Br)C1=O = T
• N#Cc1cccc(CN2CCc3ncn(Cc4ccc(Cl)cc4)c(=O)c3C2)c1 = F

* * *

Tested on: HCT-15 colon
Test: NCI-60 one-dose screen, 48 h (100 = growth as untreated, 0 = no growth, -100 = all killed)
Settings: 10 µM
Experimental: Growth inhibition of the HCT-15 human tumor cell line is measured as a screen for anti-cancer activity. Cells are grown in 96 well plates and exposed to the test compound for 48 hours. Compounds are tested at a single concentration, which is 10^-5 M for most compounds. The reported endpoint is percent growth (GI% or GIPRCNT), where numbers from 0 - 100% represent growth inhibition, and numbers from -100% - 0 represent cell death. For example, a value of 40 represents 60% growth inhibition. […]
The panel holds about 83,000 compounds, 20% with a hit somewhere; the sample as a whole holds those more often.
parameter-measured: growth (%)

• CC1=C2C(=C[C@@](C)(COS(C)(=O)=O)[C@@H]2O)C(=O)[C@](C)(O)C12CC2 = 3.8
• CC1=C(CN(O)C(N)=O)C2=C(C)C3(CC3)[C@](C)(O)C(=O)C2=C1 = 1.38
• CC1=C2C(=C[C@@](C)(COC(=O)c3ccc(S(=O)(=O)F)cc3)[C@@H]2OC(=O)c2ccc(S(=O)(=O)F)cc2)C(=O)[C@](C)(O)C12CC2 = 0.515
• CC(C)(O)/C=C/C(=O)[C@](C)(O)[C@H]1[C@H](O)C[C@@]2(C)[C@H]3CC=C4[C@@H](C[C@H](O)C(=O)C4(C)C)[C@]3(C)C(=O)C[C@]12C = 7.53
• COc1cc2c(O[C@@H]3OC[C@H](OC(C)=O)[C@H](OC(C)=O)[C@H]3O)c3c(c(-c4ccc5c(c4)OCO5)c2cc1OC)C(=O)OC3 = 1.41
• COc1cccc2c1cc([N+](=O)[O-])c1c(C(=O)O)cc3c(c12)OCO3 = 99.9
• CC(=O)O[C@@H]1[C@@H]2O[C@H]2[C@@](C)(O)C(=O)[C@@H](C)C/C=C/[C@H]2[C@@H]3O[C@]3(C)[C@@H](C)C3[C@H](Cc4ccccc4)NC(=O)[C@@]312 (stereo partly specified) = 54.1
• C[C@@H]1CCC/C=C/[C@H]2C[C@@H](O)C[C@@H]2[C@@H](O)/C=C/C(=O)O1 = 11.2
• N#Cc1c(-n2c(Br)c(Br)c3cc(Br)ccc32)[nH]c2c(Br)cc(Br)cc12 = -27
• N#Cc1nc(-c2ccccc2)oc1N1CCC(S(=O)(=O)F)CC1 = 103
• NC1CCc2cc(O)c(O)cc2C1 (stereo unspecified) = 41.8
• Cc1ccc(CNc2nc3ccc(OC/C(=C/F)CN)cc3o2)cn1 = 112
• O=C(CCCc1ccc(N(CCCl)CCCl)cc1)OCc1ccccc1 = 88.6
• COC(=O)[C@H]1[C@@H](O)[C@@]2(O)c3c(OC)cc(OC)cc3O[C@@]2(c2ccc(OC)cc2)[C@@H]1c1ccccc1 = -3.06
• CC1=C2C(=C[C@@](C)(C=O)[C@@H]2O)C(=O)[C@](C)(O)C12CC2 = 6.02
• CC1=C[C@H]2O[C@@H]3C[C@H]4OC(=O)/C=C\C=C\[C@H]([C@@H](C)O)OCC[C@@H](C)[C@H](O)C(=O)OC[C@@]2(CC1)[C@]4(C)[C@]31CO1 = -7.55

* * *

Tested on: A498 renal
Test: NCI-60 one-dose screen, 48 h
Conditions: 10 µM
This is part of a sample that, as a whole, favours compounds with a hit. Of some 83,000 tested, about 20% had one in any assay. Activity calls are given as the source filed them. The calls were made as follows: active = growth percent below 10; inactive = the rest.
Classes used: yes (1) for active, no (0) for inactive

* C[C@@H]1CCC/C=C/[C@H]2C[C@@H](O)C[C@@H]2[C@@H](O)/C=C/C(=O)O1 | yes (1)
* CC(=O)O[C@@H]1C[C@H]2O[C@@H]3C=C(C)CC[C@]3(C)[C@]1(C)[C@]21CO1 | no (0)
* CC1=C(CN(O)C(N)=O)C2=C(C)C3(CC3)[C@@](C)(O)C(=O)C2=C1 | yes (1)
* COc1cc2c(O[C@@H]3OC[C@H](OC(C)=O)[C@H](OC(C)=O)[C@H]3O)c3c(c(-c4ccc5c(c4)OCO5)c2cc1OC)C(=O)OC3 | no (0)
* C/C=C\C(=O)O[C@@H]1CC2O[C@@H]3C=C(C)C(=O)C[C@]3(C)[C@]1(C)[C@]21CO1 | yes (1)
* CC(=O)O[C@@H]1[C@@H]2O[C@H]2[C@@](C)(O)C(=O)[C@@H](C)C/C=C/[C@H]2[C@@H]3O[C@]3(C)[C@@H](C)C3[C@H](Cc4ccccc4)NC(=O)[C@@]312 (stereo partly drawn) | yes (1)
* NC1CCc2cc(O)c(O)cc2C1 (stereo not drawn) | no (0)
* N#Cc1nc(-c2ccccc2)oc1N1CCC(S(=O)(=O)F)CC1 | no (0)
